- System: LXRb homodimer (NR concentration 270 nM)
- ASSAY: PBM binding z-score (relative to random genomic background probes); higher = stronger binding; sequences stand for … in GC…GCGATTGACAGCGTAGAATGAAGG
Provide the reported PBM binding z-score of each item.

Worked examples, 5 sequences total:
>>> print(df.to_string())
                             residues            parameter     val
0  CCTTACGGGTCACTCCAGGATATAGCATCGGAGT  PBM binding z-score   0.014
1  GCTAGCAGGCCGTTTGGGTCACTCAATGACGGGC  PBM binding z-score   -1.11
2  TCTTGTAGATCAAAGGTTAGGAAAGCCGAAGCCT  PBM binding z-score  -0.196
3  CCTACTGGGGCATCAGGTCATTGATATCAACGTT  PBM binding z-score  -0.819
4  ATCTCTAGGTAACCAGGTTCAGTGAATGCCGAAC  PBM binding z-score   0.703

Return reported PBM binding z-score values for all items listed beneath this line.
1. CCTTACGGGTCACTAGGTTATAGCACGACGAGCG
2. CCTCGGAGGACAGAAGGTCAGACCTGTCCGCTTT
3. GCTATTAGTTGAAAGGGCAACCGAATGATTCTCG
4. CGAACTAGGACAAGGACAGTGAATCTCCGCACGC
5. ATCTTTAGGTAAAAGTTCAGTGAATCCCGAGGAT
6. CGAACTAGGTGAAGGACAGTGAATCTCCGCACGC

-0.31
-0.489
0.134
-0.538
1.01
-1.01

---

- System: PPARg:RXRa IVT, anti-PPARg (NR concentration 270 nM, RXRa partner concentration 90 nM)
- ASSAY: PBM binding z-score (relative to random genomic background probes); higher = stronger binding; sequences stand for … in GC…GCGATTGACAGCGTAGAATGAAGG
Returns one of satisfied or not satisfied; satisfied when PBM binding z-score is >= 3.

In [3]: df
Out[3]:
                             residues  qualitative_label
0  TCTTGTAGATCAGCAGGTTATGAAAGCTGGCCAA      not satisfied
1  CCGACTGGGGCAAAGGTTATCATACTCAGTACGA          satisfied
2  TTTGCTAGGTCAGTTGGTCAGCTAACGAGCTGCC          satisfied

Does PBM binding z-score meet or surpass 3 for CCTACTGGGCCATCAGGTCATTGGTATCAACGTT ?
satisfied

For this sequence, is measured PBM binding z-score 3 or higher? TGAATGGGGTTATAAGATCAGGGAACGTTGCAAA
not satisfied

Tell me whether PBM binding z-score is at least 3 here: AGGCAAAGTTCACTAGGTAACGTAAGATTCAGCT
satisfied

Entry GTACCAAGGTGAATAGGTAGTTGATGAGTAGGCG : is its PBM binding z-score no less than 3?
not satisfied

Does PBM binding z-score meet or surpass 3 for CGTCCAAGGTCAAGTTCAGTGAAAGAGACTCGAA ?
satisfied

Check this sequence for PBM binding z-score at or above 3: TCGAGTAGTTTAGTCGGGGCATTCAGCCAACATA
not satisfied

Quick check: does TCAGACAGGTGAAGGTAACTGAGGTACGCAGTCG have PBM binding z-score greater than or equal to 3?
not satisfied
